Tested on: TFD-BSA antigen / IgG, IgM antibodies interaction
Experiment: Competition ELISA, inhibition of antibody interaction with TFD-BSA antigen
Assay type: binding, mice
Details: competition ELISA; TFD-BSA and antigen T; in words
quantity-name: Inhibitory effect in the interaction of TFD-BSA/antigen T-IgG/IgM antibodies

INSERT INTO results (compound, observed_value) VALUES
  ('CC(=O)N[C@@H]1[C@@H](O[C@@H]2O[C@H](CO)[C@H](O)[C@H](O)[C@H]2O)[C@@H](O)[C@@H](CO)O[C@@H]1O [TFD, Galβ3GalNAcα]', 'significant inhibition'),
  ('CC(=O)NC1C(OCc2ccccc2)OC(CO)C(O)C1O (centres unmarked) [BzlαGalNAc]', 'significant inhibition'),
  ('CC(=O)NC1C(O)OC(CO)C(O)C1O (centres unmarked) [GlcNAc]', 'did not show any effect'),
  ('OCC1OC(O)C(O)C(O)C1O (centres unmarked) [Glc]', 'did not show any effect');

Request: Look up Inhibitory effect in the interaction of TFD-BSA/antigen T-IgG/IgM antibodies of CC(=O)NC1C(OCc2ccccc2)OC(CO)C(O)C1OC1OC(CO)C(O)C(O)C1O (centres unmarked) [BzlαTFD] and report it.
Result: significant inhibition

Attribution: patent US20100297159A1
